Listed here are compounds together with their documented viability, T/C.
# Tested on: 171881-019-R-J1-PDC tumor spheroid viability;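 also: spheroids exposed to compound for 7 days before viability read; 100% = DMSO vehicle-treated spheroids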
# assay.name: Anticancer human tumor 171881-019-R-J1-PDC patient-derived invasive breast carcinoma cell line growth inhibition [PI3K]
# condition.summary: second compound 0.316 µM; first compound 0.316 µM; stronger effect = lower value; spheroids with HUVEC and MSC
experimental.endpoint: viability, T/C (%)

• CC1(C)CCC(Nc2ncc(C(F)(F)F)c(-c3c[nH]c4c(P(C)(C)=O)c(C#N)ccc34)n2)CN1 (stereo not given) + COc1c(OCCCN2CCOCC2)ccc2c3n(c(=NC(=O)c4cnc(N)nc4)nc12)CCN3 = 1.41
• C=CC(=O)N1CCN(c2nc(=O)n(-c3c(C)ccnc3C(C)C)c3nc(-c4c(O)cccc4F)c(F)cc23)C(C)C1 (stereo not given) + CC(Nc1ccc2c(c1)OCCn1cc(N3C(=O)OCC3C(F)F)nc1-2)C(N)=O = 27.8
• C#Cc1c(F)ccc2cc(O)cc(-c3ncc4c(N5CC6CCC(C5)N6)nc(OCC56CCCN5CC(F)C6)nc4c3F)c12 (stereo not given) + CC(Nc1ccc2c(c1)OCCn1cc(N3C(=O)OCC3C(F)F)nc1-2)C(N)=O = 10.4
• CNC(=O)c1ccc(N2C(=S)N(c3ccc(C#N)c(C(F)(F)F)c3)C(=O)C2(C)C)cc1F + CC(Nc1ccc2c(c1)OCCn1cc(N3C(=O)OCC3C(F)F)nc1-2)C(N)=O = 25.2
• CC1(C)CCC(CN2CCN(c3ccc(C(=O)NS(=O)(=O)c4ccc(NCC5CCOCC5)c([N+](=O)[O-])c4)c(Oc4cnc5[nH]ccc5c4)c3)CC2)=C(c2ccc(Cl)cc2)C1 + Cc1nc(NC(=O)N2CCCC2C(N)=O)sc1-c1ccnc(C(C)(C)C(F)(F)F)c1 = 56.1

Measured values drawn from PubChem BioAssay AID1963986 for this set.
